// note: pIC50 values for UniProtKB G1SFD9 were reported in different studies
Quick note: pIC50 means taking -log10 of the concentration in moles per liter.

Example compounds with recorded pIC50:
COc1cccc2c1CCC(NC(=O)Nc1c(C(C)C)cccc1C(C)C)C2 (stereo not given); 7.77
CCCCCC(=O)Nc1c(OCCCn2cnc(-c3ccccc3)c2)cccc1N(C)C; 6.70
CCCCCNC(=O)Nc1c(NCCCn2cnc(-c3ccccc3)c2C)cccc1N(C)C; 6.33
Cc1cc(C)c(NC(=O)N(Cc2ccc(-c3ccccc3)s2)C2CCCCCC2)c(C)c1; 7.34
CN(C)c1cccc(OCCCn2cnc(-c3ccccc3)c2)c1NC(=O)NC(C)(C)C; 6.89
Cc1cc(C)c(NC(=O)C(C)(C)CCCCCOc2ccccc2)c2c1CC(C)(C)O2; 7.07
Cc1cc(C)c(NC(=O)C(C)(C)CCCc2ccc(CC(C)C)cc2)c2c1CC(C)(C)O2; 7.40
CSc1cc(C)nc(SC)c1NC(=O)N(Cc1ccccc1)Cc1cccc(-c2cc[nH]n2)c1; 7.00

stdin: // fetch pIC50 for `CCCCCCCCCCCCCc1cc(NC(=O)Nc2c(C(C)C)cccc2C(C)C)no1` ; system: UniProtKB G1SFD9
stdout: 7.85

stdin: // fetch pIC50 for `CCCCCCCCCCOc1ccc(C(=O)Nc2c(C)cc(C)c3c2OC(C)(C)C3)cc1` ; system: UniProtKB G1SFD9
stdout: 7.52
